system: PARP1 (Homo sapiens, UniProt P09874)
Construct: purchased Sigma-Aldrich 17-10149
Sequence (P09874 whole entry): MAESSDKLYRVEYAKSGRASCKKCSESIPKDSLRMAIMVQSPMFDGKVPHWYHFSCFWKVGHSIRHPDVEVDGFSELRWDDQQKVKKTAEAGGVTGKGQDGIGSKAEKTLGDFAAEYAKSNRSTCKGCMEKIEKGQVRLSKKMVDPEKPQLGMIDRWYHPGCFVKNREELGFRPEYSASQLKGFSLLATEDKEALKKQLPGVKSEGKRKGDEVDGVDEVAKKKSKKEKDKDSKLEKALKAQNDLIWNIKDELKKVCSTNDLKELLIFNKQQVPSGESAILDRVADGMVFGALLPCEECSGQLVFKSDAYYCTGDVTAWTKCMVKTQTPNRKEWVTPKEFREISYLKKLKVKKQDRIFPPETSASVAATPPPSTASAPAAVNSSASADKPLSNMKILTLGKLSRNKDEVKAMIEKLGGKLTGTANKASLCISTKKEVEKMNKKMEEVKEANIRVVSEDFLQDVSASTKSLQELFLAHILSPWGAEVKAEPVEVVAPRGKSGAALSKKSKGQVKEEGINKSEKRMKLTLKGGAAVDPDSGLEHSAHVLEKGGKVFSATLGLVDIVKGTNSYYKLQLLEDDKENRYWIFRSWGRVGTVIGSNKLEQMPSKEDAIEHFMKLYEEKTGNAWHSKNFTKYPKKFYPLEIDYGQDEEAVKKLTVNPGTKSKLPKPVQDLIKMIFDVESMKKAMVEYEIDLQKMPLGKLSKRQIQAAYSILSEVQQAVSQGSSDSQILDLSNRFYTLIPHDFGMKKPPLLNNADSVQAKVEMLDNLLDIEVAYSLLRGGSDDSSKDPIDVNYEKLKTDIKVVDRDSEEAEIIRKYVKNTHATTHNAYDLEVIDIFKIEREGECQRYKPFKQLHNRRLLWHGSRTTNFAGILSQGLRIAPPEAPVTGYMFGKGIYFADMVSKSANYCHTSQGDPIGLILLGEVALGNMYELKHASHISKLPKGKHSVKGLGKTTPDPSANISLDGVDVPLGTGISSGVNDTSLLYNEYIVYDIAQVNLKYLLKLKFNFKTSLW
run_description: PARP1 enzyme inhibition assay (commercial kit)
Format: biochemical
readout_name: IC50 (µM)
One number for each entry, in µM.

Q: May I ask what IC50 has been recorded for O=C(Nc1ccc(F)cc1F)N1CCN(Cc2nc3ccccc3c(=O)[nH]2)CC1 [IN17] ?
Ans: 0.471

* * *

System: HCT-15 cell lines
run_description: MTT cytotoxicity assay, HCT-15
Format: cell-based, human
test_parameters: Homo sapiens, HCT-15; 72 h (3-Days) drug exposure, MTT; read-out: IC50 HCT-15
hey, just use Yes if measured IC50 is less than 20 µM, otherwise No

INSERT INTO assay_data (compound, system, assigned_label) VALUES
  ('O=C(Nc1ccc(Cl)cc1)N1CCN(Cc2nc3ccccc3c(=O)[nH]2)CC1 [A6]', 'HCT-15 cell lines', 'No'),
  ('O=C(Nc1cc(C(F)(F)F)ccc1Cl)N1CCN(Cc2nc3ccccc3c(=O)[nH]2)CC1 [A26]', 'HCT-15 cell lines', 'No'),
  ('O=C(Nc1ccc(C(F)(F)F)cc1)N1CCN(Cc2nc3ccccc3c(=O)[nH]2)CC1 [A15]', 'HCT-15 cell lines', 'Yes'),
  ('Cc1ccc(NC(=O)N2CCN(Cc3nc4ccccc4c(=O)[nH]3)CC2)cc1C [A37]', 'HCT-15 cell lines', 'No');

Q: Find out if reported IC50 for Cc1cc(C)cc(NC(=O)N2CCN(Cc3nc4ccccc4c(=O)[nH]3)CC2)c1 [A38] is less than 20 µM
Ans: Yes

Q: Decide: IC50 of COc1ccccc1NC(=O)N1CCN(Cc2nc3ccccc3c(=O)[nH]2)CC1 [A16] strictly below 20 µM?
Ans: No

Q: Does this compound meet the criterion IC50 < 20 µM? Cc1ccc(Cl)cc1NC(=O)N1CCN(Cc2nc3ccccc3c(=O)[nH]2)CC1 [A32]
Ans: Yes

Where do the numbers come from? From paper PMC10974284.
